Tested on: OVCAR-5 ovarian
EXPERIMENTAL DETAILS: NCI-60 one-dose screen, 48 h (100 = growth as untreated, 0 = no growth, -100 = all killed)
ASSAY CONDITIONS: 10 µM unless noted
Compounds without any hit were thinned out: in the full panel of roughly 83,000, 20% have a hit.
ATTRIBUTE MEASURED: growth (%)
# value in %; strip the unit string

Sample answers from the record:
| MOLECULE | ATTRIBUTE MEASURED | READING UNIT | REPORTED |
| --- | --- | --- | --- |
| CCCCCCCCCCCC(=O)OC(C)C(=O)NCCCC (centres undefined) | growth | % | 107 |
| O=[n+]1c2ccccc2n([O-])c2cc(Cl)ccc21 | growth | % | 108 |
| NC1=C(Br)C(=O)c2ncccc2C1=O | growth | % | -49.4 |

Attention now turns to another entry.
Query: Report its growth with OVCAR-5 ovarian as the test system: COc1cc(/C=C/C(=O)CC(=O)/C=C/c2ccc(O)c(OC)c2)ccc1O
Result: 61.1

----------
Tested on: RXF 393 renal
EXPERIMENTAL DETAILS: NCI-60 one-dose screen, 48 h
ASSAY CONDITIONS: 10 µM unless noted
Compounds without any hit were thinned out: in the full panel of roughly 83,000, 20% have a hit. Activity calls are given as the source filed them. How the source made its calls: active means growth percent below 10; inactive means the rest.
Answer with one of the outcomes active, inactive

Here are 6 compounds together with their reported answers.
| COMPOUND | CLASS ASSIGNMENT |
| --- | --- |
| Oc1ccccc1N=Cc1ccccc1 | inactive |
| Cc1c(O)ccc(SC#N)c1C | inactive |
| CN1CSC(=S)N(Cc2ccccc2)C1 | inactive |
| NC(=S)N/N=C\c1nccc2c(C(F)(F)F)cccc12 | inactive |
| Cn1c(-c2ccccc2)c(/C=C/C2=[N+](C)c3ccccc3C2(C)C)c2ccccc21 | inactive |
| Cc1cc(C)c([I+]c2c(C)cc(C)cc2C)c(C)c1 | active |

Query: Answer briefly: the call reported for O/N=C1\c2ccccc2-c2ccc(F)cc21 in this assay.
Result: inactive

Query: Answer briefly: the call reported for C=C(C(N)=O)C(N)C(=O)O (stereo not given) in this assay.
Result: inactive

Query: Answer briefly: the call reported for O=C(c1ccc(O)c(Br)c1)c1ccc(O)c(Br)c1 in this assay.
Result: inactive

Query: Answer briefly: the call reported for CCOC(=O)C1=C(C(=O)c2ccccc2)C(c2cccc([N+](=O)[O-])c2)C(C(=O)c2ccccc2)=C(C(=O)OCC)N1 in this assay.
Result: inactive

Query: Answer briefly: the call reported for O=C1/C(=C\c2ccc([N+](=O)[O-])cc2)CS(=O)(=O)C/C1=C/c1ccc([N+](=O)[O-])cc1 in this assay.
Result: active

Query: Answer briefly: the call reported for C/C(=N\NC(=S)N1CC2CCC(CC2)C1)c1ccccn1 in this assay.
Result: active

Query: Answer briefly: the call reported for Oc1ccc(Br)cc1Sc1cc(Br)ccc1O in this assay.
Result: inactive

Query: Answer briefly: the call reported for Cc1ccc(/C=C2\CNC/C(=C\c3ccc(C)cc3)C2=O)cc1 in this assay.
Result: active

Query: Answer briefly: the call reported for CN=C(N)N/N=C(\C)c1ccc2c(c1)Cc1ccccc1-2 in this assay.
Result: active
